- Assay overview: Standard protocol for determination of kcat and KM (continuous spectrophotometric assay, Acetyl CoA hydrolysis at 235 nm)
- Type: biochemical
- Measurement context: purified protein; about 23° C.; 20 mM HEPES pH 6.8, 10% ethylene glycol, 0.2 mM acetyl CoA
Recorded Kcat for the following molecules
# unit: s⁻¹ | format: bare number

The recorded Kcat for SEQ ID NO: 279: GAT polypeptide (protein, 10_3G5, GAT polypeptide) MIEVKPINAEDTYEIRHRILRPNQPLEACKYETDLLGGTFHLGGYYRGKLVSIASFHQAEHPELEGQKQYQLRGMATLEGYREQKAGSTLIRHAEELLRKKGADLLWCNARTSASGYYKKLGFSEQGEVYDIPPTGPHILMYKKLT is 1.46

The recorded Kcat for SEQ ID NO: 283: GAT polypeptide (protein, 11C3, GAT polypeptide) MIEVKPINAEDTYEIRHRILRPNQPLEACKYETDLLGGTFHLGGYYQGKLISIASFHQAEHSELEGQKQYQLRGMATLEGYREQKAGSTLIRHAEELLRKKGADLLWCNARTSVSGYYKKLGFSEQGGVYDIPPIGPHILMYKKLT is 0.0467

The recorded Kcat for SEQ ID NO: 352: GAT polypeptide (protein, 24C6, GAT polypeptide) MIEVKPINAEDTYEIRHRILRPNQPLEACMYETDLLGGTFHLGGYYRGKLISIASFHQAEHSELEGQKQYQLRGMATLEGYREQKAGSTLIRHAEELLRKKGADLLWCNARISVSGYYKKLGFSEQGGVYDIPPIGPHILMYKKLA is 0.045

Reference source: patent US8008547B2
